# assayed_system: STAT6 (Homo sapiens)
# Construct: endogenous in cells; host or cells: MOLM-16, KU-812, SKNO1, MB231, L1236
# assay_name: Immunoblotting (Western blot) analysis of STAT6 degradation efficiency of degraders in treated cells
# Format: cell-based
# cond: L1236 cells, read-out: DC50 S6 L1236
Consider the following compounds and their measured DC50 readings.
property_name: DC50

>>> endpoint_result("Cc1ncsc1-c1ccc([C@H](C)NC(=O)[C@@H]2C[C@@H](O)CN2C(=O)[C@@H](NC(=O)CCCCCCCNC(=O)CC(=O)N2CCN(C(=O)[C@@H](NC(=O)c3cc4cc(C(F)(F)P(=O)(O)O)ccc4s3)C(C)(C)C)[C@H](C(=O)N3CCC[C@H](c4ccccc4)C3)C2)C(C)(C)C)cc1")
"> 10 µM"
>>> endpoint_result("Cc1ncsc1-c1ccc([C@H](C)NC(=O)[C@@H]2C[C@@H](O)CN2C(=O)[C@@H](NC(=O)CCCCCCCCNC(=O)COc2ccc3c(c2)CN(C(=O)[C@@H](NC(=O)c2cc4cc(C(F)(F)P(=O)(O)O)ccc4s2)C(C)(C)C)[C@H](C(=O)N2CCO[C@H](c4ccccc4)C2)C3)C(C)(C)C)cc1")
"> 10 µM"
>>> endpoint_result("Cc1ncsc1-c1ccc([C@H](C)NC(=O)[C@@H]2C[C@@H](O)CN2C(=O)[C@@H](NC(=O)CNC(=O)CO[C@H]2C[C@@H](C(=O)N3CCC[C@H](c4ccccc4)C3)N(C(=O)[C@@H](NC(=O)c3cc4cc(C(F)(F)P(=O)(O)O)ccc4s3)C(C)(C)C)C2)C(C)(C)C)cc1")
"> 10 µM"

----------
# assayed_system: STAT6 (Homo sapiens)
# Construct: endogenous in cells; host or cells: MOLM-16, KU-812, SKNO1, MB231, L1236
# assay_name: Immunoblotting (Western blot) analysis of STAT6 degradation efficiency of degraders in treated cells
# Format: cell-based
# cond: L1236 cells, read-out: DC50 S6 L1236
property_name: DC50

>>> endpoint_result("Cc1ncsc1-c1ccc([C@H](C)NC(=O)[C@@H]2C[C@@H](O)CN2C(=O)[C@@H](NC(=O)CCCCNC(=O)COc2ccc3c(c2)CN(C(=O)[C@@H](NC(=O)c2cc4cc(C(F)(F)P(=O)(O)O)ccc4s2)C(C)(C)C)[C@H](C(=O)N2CCO[C@H](c4ccccc4)C2)C3)C(C)(C)C)cc1")
"> 10 µM"
>>> endpoint_result("Cc1ncsc1-c1ccc([C@H](C)NC(=O)[C@@H]2C[C@@H](O)CN2C(=O)[C@@H](NC(=O)CCCCNC(=O)CC(=O)N2CCN(C(=O)[C@@H](NC(=O)c3cc4cc(C(F)(F)P(=O)(O)O)ccc4s3)C(C)(C)C)[C@H](C(=O)N3CCO[C@H](c4ccccc4)C3)C2)C(C)(C)C)cc1")
"> 10 µM"
>>> endpoint_result("Cc1ncsc1-c1ccc([C@H](C)NC(=O)[C@@H]2C[C@@H](O)CN2C(=O)[C@@H](NC(=O)CCCCCCCCCNC(=O)CC(=O)N2CCN(C(=O)[C@@H](NC(=O)c3cc4cc(C(F)(F)P(=O)(O)O)ccc4s3)C(C)(C)C)[C@H](C(=O)N3CCC[C@H](c4ccccc4)C3)C2)C(C)(C)C)cc1")
"> 10 µM"

----------
# assayed_system: STAT6 (Homo sapiens)
# Construct: endogenous in cells; host or cells: MOLM-16, KU-812, SKNO1, MB231, L1236
# assay_name: Immunoblotting (Western blot) analysis of STAT6 degradation efficiency of degraders in treated cells
# Assay type: cell-based
# cond: MOLM-16 cells, class symbols, read-out: DC50 S6 MOLM-16
property_name: DC50

>>> endpoint_result("CC(C)(C)[C@H](NC(=O)c1cc2cc(C(F)(F)P(=O)(O)O)ccc2s1)C(=O)N1Cc2cc(OCC(=O)NCCCCC#Cc3ccc4c(c3)C(=O)N(C3CCC(=O)NC3=O)C4=O)ccc2C[C@H]1C(=O)N1CCO[C@H](c2ccccc2)C1 (some centres unmarked) [Compound 542]")
"> 10 µM"
>>> endpoint_result("CC(C)(C)[C@H](NC(=O)c1cc2cc(C(F)(F)P(=O)(O)O)ccc2s1)C(=O)N1C[C@@H](OCCCCCC(=O)N2Cc3cc4c(cc3C2)C(=O)N(C2CCC(=O)NC2=O)C4)C[C@H]1C(=O)N1CCO[C@H](c2ccccc2)C1 (some centres unmarked) [Compound 590]")
"1 to 10 µM"

----------
# assayed_system: STAT6 (Homo sapiens, UniProt P42226)
# Construct: endogenous in cells; host or cells: MOLM-16, KU-812, SKNO1, MB231, L1236
# Sequence (P42226 1-847): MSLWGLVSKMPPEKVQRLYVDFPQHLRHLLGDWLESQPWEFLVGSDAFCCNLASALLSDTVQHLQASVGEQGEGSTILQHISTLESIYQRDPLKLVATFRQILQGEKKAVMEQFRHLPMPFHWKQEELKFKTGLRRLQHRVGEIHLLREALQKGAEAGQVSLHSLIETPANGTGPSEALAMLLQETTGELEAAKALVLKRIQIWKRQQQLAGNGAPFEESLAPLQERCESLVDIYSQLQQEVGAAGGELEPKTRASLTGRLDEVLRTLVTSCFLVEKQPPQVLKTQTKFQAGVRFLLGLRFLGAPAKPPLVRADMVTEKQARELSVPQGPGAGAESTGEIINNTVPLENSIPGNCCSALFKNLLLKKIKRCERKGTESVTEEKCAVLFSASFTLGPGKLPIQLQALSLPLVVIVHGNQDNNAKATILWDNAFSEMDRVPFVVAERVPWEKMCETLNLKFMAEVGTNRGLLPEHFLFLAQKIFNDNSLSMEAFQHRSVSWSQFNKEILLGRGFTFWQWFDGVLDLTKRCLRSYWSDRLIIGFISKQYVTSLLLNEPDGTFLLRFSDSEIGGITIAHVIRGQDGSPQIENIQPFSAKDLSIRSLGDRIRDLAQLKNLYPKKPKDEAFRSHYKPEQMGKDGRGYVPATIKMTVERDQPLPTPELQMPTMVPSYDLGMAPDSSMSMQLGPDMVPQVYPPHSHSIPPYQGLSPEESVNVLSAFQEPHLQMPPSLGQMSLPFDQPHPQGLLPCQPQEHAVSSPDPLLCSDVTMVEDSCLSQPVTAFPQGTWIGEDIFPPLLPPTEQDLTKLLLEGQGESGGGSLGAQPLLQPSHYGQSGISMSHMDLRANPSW
# assay_name: Immunoblotting (Western blot) analysis of STAT6 degradation efficiency of degraders in treated cells
# Type: cell-based
# cond: MOLM-16 cells, class symbols, read-out: DC50 S6 MOLM-16
Consider the following compounds and their measured DC50 readings.
property_name: DC50

>>> endpoint_result("CC(C)(C)[C@H](NC(=O)c1cc2cc(C(F)(F)P(=O)(O)O)ccc2s1)C(=O)N1Cc2cc(OCC(=O)NCCCC#Cc3ccc4c(c3)C(=O)N(C3CCC(=O)NC3=O)C4=O)ccc2C[C@H]1C(=O)N1CCC[C@H](c2ccccc2)C1 (stereo partly shown)")
"> 10 µM"
>>> endpoint_result("Cc1ncsc1-c1ccc([C@H](C)NC(=O)[C@@H]2C[C@@H](O)CN2C(=O)[C@@H](NC(=O)CCCCCCCCNC(=O)CO[C@H]2C[C@@H](C(=O)N3CCC[C@H](c4ccccc4)C3)N(C(=O)[C@@H](NC(=O)c3cc4cc(C(F)(F)P(=O)(O)O)ccc4s3)C(C)(C)C)C2)C(C)(C)C)cc1")
"> 10 µM"
>>> endpoint_result("CC(C)(C)C(=O)OCOP(=O)(O)C(F)(F)c1ccc2sc(C(=O)N[C@H](C(=O)N3CCC[C@H]3C(=O)N(CCC(=O)NCCCC#Cc3cccc4c3CN(C3CCC(=O)NC3=O)C4=O)c3ccc(Br)cc3)C(C)(C)C)cc2c1 (stereo partly shown)")
"< 0.1 µM"
>>> endpoint_result("Cc1ncsc1-c1ccc([C@H](C)NC(=O)[C@@H]2C[C@@H](O)CN2C(=O)[C@@H](NC(=O)CCCCNC(=O)CO[C@H]2C[C@@H](C(=O)N3CCC[C@H](c4ccccc4)C3)N(C(=O)[C@@H](NC(=O)c3cc4cc(C(F)(F)P(=O)(O)O)ccc4s3)C(C)(C)C)C2)C(C)(C)C)cc1")
"> 10 µM"

----------
Consider the following compounds and their measured DC50 readings.
# assayed_system: STAT6 (Homo sapiens, UniProt P42226)
# Construct: endogenous in cells; host or cells: MOLM-16, KU-812, SKNO1, MB231, L1236
# assay_name: Immunoblotting (Western blot) analysis of STAT6 degradation efficiency of degraders in treated cells
# Assay type: cell-based
# cond: L1236 cells, read-out: DC50 S6 L1236
property_name: DC50

>>> endpoint_result("O=C1CCC(N2Cc3cc(C#CCCCCCC(=O)N4CC[C@H]5CC[C@@H](C(=O)N6CCOC(c7ccc(F)c(Cl)c7)C6)N5C(=O)[C@@H](NC(=O)c5cc6cc(C(F)(F)P(=O)(O)O)ccc6s5)C4)ccc3C2=O)C(=O)N1 (stereo partly shown)")
"> 10 µM"
>>> endpoint_result("Cc1ncsc1-c1ccc([C@H](C)NC(=O)[C@@H]2C[C@@H](O)CN2C(=O)[C@@H](NC(=O)CCNC(=O)CO[C@H]2C[C@@H](C(=O)N3CCO[C@H](c4ccccc4)C3)N(C(=O)[C@@H](NC(=O)c3cc4cc(C(F)(F)P(=O)(O)O)ccc4s3)C(C)(C)C)C2)C(C)(C)C)cc1")
"> 10 µM"
>>> endpoint_result("CN(C(=O)[C@@H]1C[C@@H](OCC(=O)NCCCCCCCCCC#Cc2cccc3c2CN(C2CCC(=O)NC2=O)C3=O)CN1C(=O)[C@@H](NC(=O)c1cc2cc(C(F)(F)P(=O)(O)O)ccc2s1)C(C)(C)C)c1ccc(Br)cc1 (stereo partly shown)")
"> 10 µM"
>>> endpoint_result("CN(C(=O)[C@@H]1C[C@@H](OCC(=O)NCCCCCC#Cc2cccc3c2CN(C2CCC(=O)NC2=O)C3=O)CN1C(=O)[C@@H](NC(=O)c1cc2cc(C(F)(F)P(=O)(O)O)ccc2s1)C(C)(C)C)c1ccc(Br)cc1 (stereo partly shown)")
"> 10 µM"
>>> endpoint_result("CC(C)(C)[C@H](NC(=O)c1cc2cc(C(F)(F)P(=O)(O)O)ccc2s1)C(=O)N1C[C@@H](OCCCCCCCCCCC#Cc2cccc3c2CN(C2CCC(=O)NC2=O)C3=O)C[C@H]1C(=O)N1CCO[C@H](c2ccccc2)C1 (stereo partly shown)")
"> 10 µM"
>>> endpoint_result("Cc1ncsc1-c1ccc([C@H](C)NC(=O)[C@@H]2C[C@@H](O)CN2C(=O)[C@@H](NC(=O)CCCCCCNC(=O)CC(=O)N2CCN(C(=O)[C@@H](NC(=O)c3cc4cc(C(F)(F)P(=O)(O)O)ccc4s3)C(C)(C)C)[C@H](C(=O)N3CCO[C@H](c4ccccc4)C3)C2)C(C)(C)C)cc1")
"> 10 µM"
>>> endpoint_result("Cc1ncsc1-c1ccc([C@H](C)NC(=O)[C@@H]2C[C@@H](O)CN2C(=O)[C@@H](NC(=O)CCCCCCCCNC(=O)CC(=O)N2CCN(C(=O)[C@@H](NC(=O)c3cc4cc(C(F)(F)P(=O)(O)O)ccc4s3)C(C)(C)C)[C@H](C(=O)N3CCO[C@H](c4ccccc4)C3)C2)C(C)(C)C)cc1")
"> 10 µM"
>>> endpoint_result("Cc1ncsc1-c1ccc([C@H](C)NC(=O)[C@@H]2C[C@@H](O)CN2C(=O)[C@@H](NC(=O)CCNC(=O)CC(=O)N2CCN(C(=O)[C@@H](NC(=O)c3cc4cc(C(F)(F)P(=O)(O)O)ccc4s3)C(C)(C)C)[C@H](C(=O)N3CCO[C@H](c4ccccc4)C3)C2)C(C)(C)C)cc1")
"> 10 µM"
>>> endpoint_result("O=C1CCC(N2Cc3c(C#CCCCCCC(=O)N4CC[C@H]5CC[C@@H](C(=O)N6CC[C@@H](c7ccccc7)C6)N5C(=O)[C@@H](NC(=O)c5cc6cc(C(F)(F)P(=O)(O)O)ccc6s5)C4)cccc3C2=O)C(=O)N1 (stereo partly shown)")
"> 10 µM"
>>> endpoint_result("Cc1ncsc1-c1ccc([C@H](C)NC(=O)[C@@H]2C[C@@H](O)CN2C(=O)[C@@H](NC(=O)CCCCCCCCCNC(=O)COc2ccc3c(c2)CN(C(=O)[C@@H](NC(=O)c2cc4cc(C(F)(F)P(=O)(O)O)ccc4s2)C(C)(C)C)[C@H](C(=O)N2CCO[C@H](c4ccccc4)C2)C3)C(C)(C)C)cc1")
"> 10 µM"
>>> endpoint_result("Cc1ncsc1-c1ccc([C@H](C)NC(=O)[C@@H]2C[C@@H](O)CN2C(=O)[C@@H](NC(=O)CCCCCNC(=O)COc2ccc3c(c2)CN(C(=O)[C@@H](NC(=O)c2cc4cc(C(F)(F)P(=O)(O)O)ccc4s2)C(C)(C)C)[C@H](C(=O)N2CCO[C@H](c4ccccc4)C2)C3)C(C)(C)C)cc1")
"> 10 µM"
>>> endpoint_result("Cc1ncsc1-c1ccc([C@H](C)NC(=O)[C@@H]2C[C@@H](O)CN2C(=O)[C@@H](NC(=O)CCCNC(=O)CO[C@H]2C[C@@H](C(=O)N3CCO[C@H](c4ccccc4)C3)N(C(=O)[C@@H](NC(=O)c3cc4cc(C(F)(F)P(=O)(O)O)ccc4s3)C(C)(C)C)C2)C(C)(C)C)cc1")
"> 10 µM"
>>> endpoint_result("Cc1ncsc1-c1ccc([C@H](C)NC(=O)[C@@H]2C[C@@H](O)CN2C(=O)[C@@H](NC(=O)CCCCCNC(=O)CO[C@H]2C[C@@H](C(=O)N3CCC[C@H](c4ccccc4)C3)N(C(=O)[C@@H](NC(=O)c3cc4cc(C(F)(F)P(=O)(O)O)ccc4s3)C(C)(C)C)C2)C(C)(C)C)cc1")
"> 10 µM"
>>> endpoint_result("CC(C)(C)[C@H](NC(=O)c1cc2cc(C(F)(F)P(=O)(O)O)ccc2s1)C(=O)N1C[C@@H](NC(=O)CCCC#Cc2ccc3c(c2)CN(C2CCC(=O)NC2=O)C3=O)C[C@H]1C(=O)N1CCO[C@H](c2ccccc2)C1 (stereo partly shown)")
"> 10 µM"
>>> endpoint_result("Cc1ncsc1-c1ccc([C@H](C)NC(=O)[C@@H]2C[C@@H](O)CN2C(=O)[C@@H](NC(=O)CNC(=O)CC(=O)N2CCN(C(=O)[C@@H](NC(=O)c3cc4cc(C(F)(F)P(=O)(O)O)ccc4s3)C(C)(C)C)[C@H](C(=O)N3CCO[C@H](c4ccccc4)C3)C2)C(C)(C)C)cc1")
"> 10 µM"
>>> endpoint_result("Cc1ncsc1-c1ccc([C@H](C)NC(=O)[C@@H]2C[C@@H](O)CN2C(=O)[C@@H](NC(=O)CCCCCCCCCNC(=O)CO[C@H]2C[C@@H](C(=O)N3CCC[C@H](c4ccccc4)C3)N(C(=O)[C@@H](NC(=O)c3cc4cc(C(F)(F)P(=O)(O)O)ccc4s3)C(C)(C)C)C2)C(C)(C)C)cc1")
"> 10 µM"

This collection of values is drawn from patent US20230295197A1.
